System: HOP-92
Assay: NCI tumour cell line growth inhibition, 48 h
Calls of active or inactive are those of the source. Rule as the data show it: active = GI50 up to about 1.1 µM and inactive = higher.
Would you mind answering with one of these outcomes? active, inactive

Solved entries (count: 8):
>>> class_assignment("C=C1CC(C)(COc2cc(=O)oc3ccccc23)OC1=O (stereo not drawn)")
"inactive"
>>> class_assignment("Cl/C(=C\\C=N\\c1ccc(I)cc1)c1ccc2ccccc2c1")
"inactive"
>>> class_assignment("COC(=O)c1cc(C#N)[nH]c1-c1ccc(C)s1")
"inactive"
>>> class_assignment("Nc1ccccc1/N=N/c1c(S(=O)(=O)O)cc2cc(S(=O)(=O)O)cc(O)c2c1O")
"inactive"
>>> class_assignment("COc1ccc(-c2cc(=O)c3cc(O)ccc3o2)c(OC)c1OC")
"inactive"
>>> class_assignment("FC(F)(F)c1ccc2nc3n(c2c1)C(c1c(Cl)cccc1Cl)SC3 (stereo not drawn)")
"inactive"
>>> class_assignment("CNC(=O)OCc1nc(SC)n(C)c1CO")
"inactive"
>>> class_assignment("CCOC(=O)C1C(O)CC2c3ccccc3-c3ccccc3C21 (stereo not drawn)")
"inactive"

Hi, sorry to bother you, what did the test record for CCCCCNC(=O)OC1CCn2c1nc1c2C(=O)C(C)=C(N2CC2)C1=O (stereo not drawn) ?
inactive

Entry to check: "NCCCN1c2ccccc2Sc2ccc(Cl)cc21"
inactive

Would you kindly repeat that for "CC(C)(Oc1ccc2c(=O)cc(-c3ccccc3)oc2c1)C(=O)Nc1c(Cl)cccc1Cl" ?
inactive

Param item: "N/C(=N\Nc1ccc(C(=O)O)cc1)c1cnccn1"
inactive

Next: CC(=O)Nc1ccc2c3c(cc(O)c2c1)N(C(=O)CCCCCCC(=O)Nc1ccc2c4c(cc(O)c2c1)N(C(=O)OC(C)(C)C)CC4CCl)CC3CCl (stereo not drawn)
active

Note, next up: O=C(O)c1ccc2c(c1)CC1(C2)Cc2ccccc2C1=O (stereo not drawn)
inactive

Check "N=C(N)NS(=O)(=O)c1ccc(Nc2c3ccccc3nc3c(C(=O)Nc4ccc(S(N)(=O)=O)cc4)ccc(Cl)c23)cc1" too.
inactive

Please do the same for Nc1ccc(C(=O)NN2C(=O)C(Cl)C2c2cccc([N+](=O)[O-])c2)cc1 (stereo not drawn) as well.
inactive

Another compound: "CC1(C)OC(=O)C(C)(C)OC1=O"
inactive

Another: O=C1C2CC=CCC2C(=O)N1n1c(Cc2ccccc2)n[nH]c1=O (stereo not drawn)
inactive

----------
In this section, each of the compounds is paired with its reported GI50.
Tested on: SK-MEL-2
Assay: NCI tumour cell line growth inhibition, 48 h
Active and inactive are the calls of the source. Rule as the data show it: active = GI50 up to about 1.1 µM and inactive = higher.

Worked set:
>>> recorded_measurement("CC(C)(CC#N)c1cc(CC(C)(C)c2cc(CC(C)(C)c3cc(C(C)(C)C4(C)OCCO4)no3)no2)no1")
"42.7 µM (inactive)"
>>> recorded_measurement("CC(C)(C)c1cc(C2NCCO2)cc(C(C)(C)C)c1O (stereo unspecified)")
"35.2 µM (inactive)"
>>> recorded_measurement("C=C1CC(C)(COc2cc(=O)oc3ccccc23)OC1=O (stereo unspecified)")
"2.51 µM (inactive)"

Would you mind telling me what GI50 value was observed for CC(C)C1CC[C@@H](C)C[C@@]1(O)CC(N)=O (stereo partly specified) ?
> 100 µM (inactive)

Check "COc1ccccc1/N=C(\N)N/N=C/c1c[nH]c2ccccc12" too.
6.46 µM (inactive)

How about "COc1ccc(-c2c(-c3ccc(OC)cc3)n3c(=O)n(C)c(=O)n23)cc1" ?
43.2 µM (inactive)

----------
Test system: ACHN
Test: NCI tumour cell line growth inhibition, 48 h
The source made the active and inactive calls. Rule as the data show it: active = GI50 up to about 1.1 µM and inactive = higher.
Log the outcome using a class from t (active), f (inactive)

>>> class_assignment("CCCCc1ccc(-n2sc3ncccc3c2=O)cc1")
"f"

Could you check what this test reported for "COc1ccc(-c2cc(=O)c3cc(O)ccc3o2)c(OC)c1OC" ?
f

What do you get for "CN(C)S(=O)(=O)/N=C/c1cccc(/C=N/S(=O)(=O)N(C)C)c1" ?
f

----------
Tested on: UO-31
Experiment: NCI tumour cell line growth inhibition, 48 h
Active and inactive are the calls of the source. Rule as the data show it: active = GI50 up to about 1.1 µM and inactive = higher.
measured.metric: GI50

>>> recorded_measurement("CC(C)C1CC[C@@H](C)C[C@@]1(O)CC(N)=O (some centres undefined)")
"> 100 µM (inactive)"
>>> recorded_measurement("CCOc1ccc2c(c1)[n+]([O-])c(-c1ccccc1)c(N)[n+]2[O-]")
"96.4 µM (inactive)"
>>> recorded_measurement("CCOP(=O)(O)C(Nc1ccc(/N=N/c2ccccc2)cc1)c1cccc(C(Nc2ccc(/N=N/c3ccccc3)cc2)P(=O)(O)OCC)c1 (centres undefined)")
"30 µM (inactive)"
>>> recorded_measurement("COc1cc(C2C(Cl)C(=O)N2NC(=O)c2ccc(NC(C)=O)cc2)ccc1O (centres undefined)")
"> 100 µM (inactive)"

Give UO-31 GI50 for COC(=O)C1C(O)CC(c2ccccn2)N(Cc2ccccc2)C1c1ccccn1 (centres undefined)
> 100 µM (inactive)

Note, next up: "CC(C)(C)c1cc2ccc(C(N)=O)cc2c(=O)[nH]1"
63.8 µM (inactive)

Thanks! And "O=C1C=C(c2c(-c3ccccc3)[nH]c3ccccc23)C(=O)N1c1ccccc1" ?
13.9 µM (inactive)

Also check COc1cc(C2c3cc4c(cc3OC(N3CCOCC3)C2C)OCO4)cc(OC)c1OC (centres undefined)
1.86 µM (inactive)

Would you kindly repeat that for CC(N)/C(N)=N/O (centres undefined) ?
> 100 µM (inactive)

Moving on to COc1ccc(C2c3cc4c(cc3OC(Nc3ccccc3)C2C)OCO4)cc1 (centres undefined)
29.5 µM (inactive)

----------
Tested on: SF-268
Assay: NCI tumour cell line growth inhibition, 48 h
Activity calls are given as the source filed them. Cut-off read from the data, not from the text of the source: active = GI50 up to about 1.1 µM and inactive = higher.
Use one of these outcomes when replying: yes = active, no = inactive

Worked set:
>>> class_assignment("Cc1[nH]nc(C(=O)N/N=C/c2ccccc2Cl)c1/N=N\\N(C)C")
"no"
>>> class_assignment("Cc1cccc(-c2cc(O)c3c(C)ccnc3n2)c1")
"no"
>>> class_assignment("Nc1ccc(C(=O)NN2C(=O)C(Cl)C2c2cccc([N+](=O)[O-])c2)cc1 (configuration not stated)")
"no"
>>> class_assignment("Nc1nncc2c1ccn2C1OC(CO)C(O)C1O (configuration not stated)")
"no"
>>> class_assignment("Cn1nc(S(N)(=O)=O)s/c1=N/S(=O)(=O)c1ccc(N)cc1")
"no"
>>> class_assignment("CNC(=O)OCc1nc(SC)n(C)c1CO")
"no"

Which outcome did this test record for the compound "CCOC(=O)c1ccc(/N=c2\oc3ccc(OC)cc3cc2-c2nc3ccccc3[nH]2)cc1" ?
no

// query: CC(=O)Nc1ccc(C2CC(c3ccc([N+](=O)[O-])cc3)=Nc3ccccc3[S+]2[O-])cc1 (configuration not stated)
no

Also check "COc1ccccc1Cn1nc(OC)c2cc([N+](=O)[O-])ccc21"
no

Query O=C(O)C(Cc1c[nH]cn1)N1C(=O)c2ccccc2C1=O (configuration not stated) next
no

// next record OCC1OC(n2cnc3c2NC=NC[C@H]3O)CC1O (some centres not stated)
no

Repeat for the following compound: CC(=O)Nc1ccc2c3c(cc(O)c2c1)N(C(=O)CCCCCCC(=O)Nc1ccc2c4c(cc(O)c2c1)N(C(=O)OC(C)(C)C)CC4CCl)CC3CCl (configuration not stated)
yes

What do we get for "CCOC(=O)/C=C(\C)c1ccc(C)cc1C" ?
no

----------
System: SF-295
Experiment: NCI tumour cell line growth inhibition, 48 h
Active and inactive are the calls of the source. No stated cut-off is given here; in the data, active = GI50 up to about 1.1 µM and inactive = higher.
Your response should consist of one outcome taken from label 1 for active, label 0 for inactive

Example cases with answers are listed next.
>>> class_assignment("COc1ccccc1Cn1nc(OC)c2cc([N+](=O)[O-])ccc21")
"label 0"
>>> class_assignment("CN(C)S(=O)(=O)/N=C/c1cccc(/C=N/S(=O)(=O)N(C)C)c1")
"label 1"
>>> class_assignment("O=C(NNC(=O)c1ccccc1O)c1cccs1")
"label 0"
>>> class_assignment("O=S(=O)(CC1=NC2C=CC=CC2N=C1)NCc1ccccc1 (stereo unspecified)")
"label 0"

// return assay outcome for Nc1ccc(C(=O)NN2C(=O)C(Cl)C2c2cccc([N+](=O)[O-])c2)cc1 (stereo unspecified)
label 0

Continue with "CCOC(=O)NC(=O)c1cn(C2CCCCC2)c(=O)n(C)c1=O"
label 0

Would you mind doing "COC1=CC(=O)c2c(O)c3c(c(O)c2C1=O)C[C@](C)(O)C[C@@H]3O" as well?
label 0

Next: "c1ccc2c(c1)c1ccccc1n2Cn1c2ccccc2c2ccccc21"
label 0

Same again, this time with CC1CC2OC(=N)C1(C#N)C2(C#N)C#N (stereo unspecified)
label 0

Now consider O=C(O)c1ccc2c(c1)CC1(C2)Cc2ccccc2C1=O (stereo unspecified) and answer again.
label 0

Please do the same for CCOP(=O)(O)C(Nc1ccc(/N=N/c2ccccc2)cc1)c1cccc(C(Nc2ccc(/N=N/c3ccccc3)cc2)P(=O)(O)OCC)c1 (stereo unspecified) as well.
label 0

What would you report for "NS(=O)(=O)c1nnc(NC(=O)c2cccc([N+](=O)[O-])c2)s1" ?
label 0

Likewise for "O=C(O)CCSC(=S)Nc1ccc([N+](=O)[O-])cc1" ?
label 0

Try "N#C/C(=C/Sc1ccccc1)C(=O)O" next.
label 0

Please give the result for "COc1ccc(-c2c(-c3ccc(OC)cc3)n3c(=O)n(C)c(=O)n23)cc1" too.
label 0

Ok, now CNc1cc2c(c3ccccc13)C(CCl)CN2C(=O)c1cc2cc(OC)c(OC)c(OC)c2[nH]1 (stereo unspecified)
label 1

What do we get for C#CC(O)/C=C/C(O)CCCC(O)CC#CC(O)C#CCCCCC(O)/C=C/CCCC(O)/C=C/CCCCCCCCCCCCCC(O)C(O)C#CC(=O)O (stereo unspecified) ?
label 0

Same read-out for COc1ccc(S(=O)(=O)NC(C)C(=O)O)cc1 (stereo unspecified) ?
label 0
